# system_tested: T1, monkey 4-1BB on CHOK1 cells (monkey)
# T1 construct: whole, on cells; also called CHOK1-c4-1BB
# experimental_protocol: FACS, CHOK1-c4-1BB cells; Ab 0.0032 ug/ml
endpoint_label: average fluorescence intensity (MFI)

{"binder": "15G10D4 (antibody, V domains shown) VH: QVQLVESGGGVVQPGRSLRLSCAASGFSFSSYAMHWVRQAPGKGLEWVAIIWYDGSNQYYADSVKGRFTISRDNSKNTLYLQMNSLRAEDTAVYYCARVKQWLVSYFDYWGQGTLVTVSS VL: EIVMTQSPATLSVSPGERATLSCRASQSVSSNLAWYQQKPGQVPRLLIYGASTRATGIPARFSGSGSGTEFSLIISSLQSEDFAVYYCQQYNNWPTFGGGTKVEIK", "measured_value": 12}
{"binder": "119B6G5 (antibody, V domains shown) VH: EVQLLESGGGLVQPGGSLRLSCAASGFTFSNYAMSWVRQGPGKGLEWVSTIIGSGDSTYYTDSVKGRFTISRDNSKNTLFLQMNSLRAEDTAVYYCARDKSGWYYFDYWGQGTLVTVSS VL: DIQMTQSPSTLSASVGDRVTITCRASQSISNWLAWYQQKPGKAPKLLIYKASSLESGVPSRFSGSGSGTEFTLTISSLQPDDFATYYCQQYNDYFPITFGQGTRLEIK", "measured_value": 20.7}
{"binder": "113F6C6 (antibody, V domains shown, also called 4-1BB fully human antibody 113F6C6; 113F6F6) VH: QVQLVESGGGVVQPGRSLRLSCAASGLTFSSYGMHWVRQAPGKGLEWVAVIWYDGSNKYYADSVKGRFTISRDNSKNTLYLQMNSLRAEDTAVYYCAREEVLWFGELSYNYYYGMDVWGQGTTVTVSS VL: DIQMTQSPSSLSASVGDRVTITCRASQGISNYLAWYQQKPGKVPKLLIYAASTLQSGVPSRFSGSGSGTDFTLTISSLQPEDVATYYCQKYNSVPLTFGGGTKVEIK", "measured_value": 15.1}
